- measurement_target: NLRP3 inflammasome (Homo sapiens)
- Construct: endogenous in cells
- test: In vitro IL-1β production test (PMA-differentiated THP-1 cells, Nigericin stimulation, AlphaLISA)
- conditions_used: inhibition of IL-1β production; THP-1 cells differentiated with 200 nM PMA; 0.015 mM Nigericin; 2 hours
readout_kind: IC50 (µM)

>  <compound>
CCN1[C@H]2CC[C@H](N3CCc4cc(-c5c(C)cc(C(F)(F)F)cc5O)nnc43)[C@@H]1CC2 (racemic) [Example 17]

>  <readout_kind>
IC50

>  <value_observed>
0.00947

$$$$
>  <compound>
CCN1CCC[C@@H](c2cccc3cc(-c4c(C)cc(C(F)(F)F)cc4O)nnc23)C1 (single isomer, unassigned) [Example 97]

>  <readout_kind>
IC50

>  <value_observed>
0.00833

$$$$
>  <compound>
Cc1cc(C(F)(F)F)cc(O)c1-c1cc2ccn([C@H]3C[C@@](C)(O)C3)c2nn1 [Example 3]

>  <readout_kind>
IC50

>  <value_observed>
0.0525

$$$$

A. COc1cn([C@H]2C[C@@](C)(O)C2)c2nnc(-c3c(C)cc(C(F)(F)F)cc3O)cc12 [Example 10]
B. Cc1cc(OC(F)F)cc(O)c1-c1cc2c(OC(F)F)cn([C@H]3C[C@@](C)(O)C3)c2nn1 [Example 78]
Look at A and B . Which one has the lower recorded IC50 number? // caller expects the label of the chosen entry
A
(A: 0.0237 µM, B: 0.035 µM)

a. Cc1cc(C(C)(F)F)cc(O)c1-c1cc2c(C)cn([C@H]3C[C@@](C)(O)C3)c2nn1 [Example 69]
b. Cc1cc(Cl)cc(O)c1-c1cc2c3c(n([C@H]4C[C@@](C)(O)C4)c2nn1)CCC3 [Example 82]
Look at a and b . Which one has the lower recorded IC50 number? // caller expects the label of the chosen entry
b

----------
- measurement_target: NLRP3 inflammasome (Homo sapiens)
- Construct: endogenous in cells
- test: In vitro IL-1β production test (PMA-differentiated THP-1 cells, Nigericin stimulation, AlphaLISA)
- conditions_used: inhibition of IL-1β production; THP-1 cells differentiated with 200 nM PMA; 0.015 mM Nigericin; 2 hours
readout_kind: IC50 (µM)

P. Cc1c(-c2ccc3c(c2O)CCC3)nnc2c1ccn2[C@H]1C[C@@](C)(O)C1
Q. CCN1CCC[C@@H](n2cc(OC)c3cc(-c4c(C)cc(C(F)(F)F)cc4O)nnc32)C1
// compare measured IC50, left P , right Q , return larger // caller expects the label of the chosen entry
P

A. Cc1cc(C(F)(F)F)cc(O)c1-c1cc2ccn([C@@H]3CCCN(C)C3)c2nn1
B. Cc1cc(OC(F)F)cc(O)c1-c1cc2c3c(n([C@H]4C[C@@](C)(O)C4)c2nn1)CCC3
C. Cc1cc(Cl)cc(O)c1-c1cc2c(C)cn([C@H]3C[C@@](C)(O)C3)c2nn1
Rank entries according to their IC50, from the largest number down. As an answer, provide the labels arranged in the order called for.
B, C, A

----------
- test: Pharmacokinetics test in mice (plasma and brain concentration, LC/MS/MS)
- Format: in vivo
- conditions_used: mouse; male BALB/c mice; oral 10 mg/kg; two hours after administration; concentration in brain homogenate standardized with concentration in plasma
readout_kind: Kp at 2 h

Example compounds with recorded Kp at 2 h:
>  <mol>
Cc1cc(C(F)(F)F)cc(O)c1-c1cc2c(OC(F)F)cn([C@H]3C[C@@](C)(O)C3)c2nn1

>  <Kp at 2 h>
0.83

$$$$
>  <mol>
Cc1cc(Cl)cc(O)c1-c1cc2c(F)cn([C@H]3C[C@@](C)(O)C3)c2nn1

>  <Kp at 2 h>
0.92

$$$$
>  <mol>
COc1cn([C@H]2C[C@@](C)(O)C2)c2nnc(-c3c(C)cc(C(F)(F)F)cc3O)cc12

>  <Kp at 2 h>
0.7

$$$$

A. Cc1cc(C(F)(F)F)cc(O)c1-c1cc2c(C)cn([C@H]3C[C@@](C)(O)C3)c2nn1
B. Cc1cc(C(F)(F)F)cc(O)c1-c1cc2ccn([C@H]3C[C@@](C)(O)C3)c2nn1
C. Cc1cc(C(F)(F)F)cc(O)c1-c1cc2c(F)cn([C@H]3C[C@@](C)(O)C3)c2nn1
Rank entries according to their Kp at 2 h, from the largest number down. As an answer, provide the labels arranged in the order called for.
C, B, A
(C: 1.68, B: 1.1, A: 0.65)

----------
- measurement_target: NLRP3 inflammasome (Homo sapiens, UniProt Q96P20)
- Construct: endogenous in cells; host or cells: THP-1 (human monocyte-derived), PMA-differentiated, Nigericin-stimulated
- Sequence (Q96P20 whole entry): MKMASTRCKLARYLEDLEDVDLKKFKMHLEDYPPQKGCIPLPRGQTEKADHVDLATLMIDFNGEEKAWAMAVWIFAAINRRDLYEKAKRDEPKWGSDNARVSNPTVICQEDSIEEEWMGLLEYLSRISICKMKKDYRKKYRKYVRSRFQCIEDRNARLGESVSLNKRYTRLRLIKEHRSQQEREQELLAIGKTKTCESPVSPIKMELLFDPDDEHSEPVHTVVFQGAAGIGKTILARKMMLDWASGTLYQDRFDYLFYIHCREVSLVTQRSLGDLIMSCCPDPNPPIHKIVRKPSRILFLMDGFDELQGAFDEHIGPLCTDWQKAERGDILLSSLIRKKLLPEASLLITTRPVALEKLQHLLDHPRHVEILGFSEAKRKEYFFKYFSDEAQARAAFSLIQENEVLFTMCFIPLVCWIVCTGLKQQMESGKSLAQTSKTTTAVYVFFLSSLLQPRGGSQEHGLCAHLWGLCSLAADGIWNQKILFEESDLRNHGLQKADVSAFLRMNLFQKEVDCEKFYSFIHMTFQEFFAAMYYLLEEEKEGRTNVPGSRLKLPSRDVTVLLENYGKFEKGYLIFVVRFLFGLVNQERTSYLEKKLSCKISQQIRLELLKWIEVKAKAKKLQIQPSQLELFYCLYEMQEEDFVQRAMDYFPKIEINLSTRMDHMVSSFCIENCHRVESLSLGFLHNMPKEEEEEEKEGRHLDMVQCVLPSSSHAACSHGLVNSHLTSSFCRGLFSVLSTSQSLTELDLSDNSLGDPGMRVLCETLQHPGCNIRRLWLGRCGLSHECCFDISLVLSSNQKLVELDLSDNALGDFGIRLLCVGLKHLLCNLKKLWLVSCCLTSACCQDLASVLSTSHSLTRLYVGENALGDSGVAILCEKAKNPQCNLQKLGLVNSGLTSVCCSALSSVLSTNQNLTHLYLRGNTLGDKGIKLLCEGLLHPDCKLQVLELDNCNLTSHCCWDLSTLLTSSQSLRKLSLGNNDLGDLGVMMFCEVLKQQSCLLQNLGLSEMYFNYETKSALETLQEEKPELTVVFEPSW
- test: In vitro IL-1β production test (PMA-differentiated THP-1 cells, Nigericin stimulation, AlphaLISA)
- Type: cell-based
- conditions_used: inhibition of IL-1β production; THP-1 cells differentiated with 200 nM PMA; 0.015 mM Nigericin; 2 hours
pIC50: −log10 of the molar value.
readout_kind: pIC50

Example compounds with recorded pIC50:
>  <compound>
Cc1cc(C(F)(F)F)cc(O)c1-c1cc2c(nn1)N([C@@H]1CCCN(C)C1)CC2 [Example 1]

>  <pIC50>
8.28

$$$$
>  <compound>
Cc1cn([C@H]2C[C@@](C)(O)C2)c2nnc(-c3c(O)cc(Cl)cc3Cl)cc12 [Example 63]

>  <pIC50>
7.37

$$$$
>  <compound>
Cc1cc(C(F)(F)F)cc(O)c1-c1cc2c(C)cn([C@@H]3CCC[C@@H](O)C3)c2nn1 [Example 54]

>  <pIC50>
7.07

$$$$
>  <compound>
Cc1cc(C(F)F)cc(O)c1-c1cc2c(C)cn([C@H]3C[C@@](C)(O)C3)c2nn1 [Example 92]

>  <pIC50>
7.23

$$$$
>  <compound>
Cc1cc(C(F)(F)F)cc(O)c1-c1cc2c3ccccc3n([C@H]3C[C@@](C)(O)C3)c2nn1 [Example 81]

>  <pIC50>
7.26

$$$$
>  <compound>
Cc1cc(C(F)(F)F)cc(O)c1-c1cc2c(nn1)N([C@@H]1CCCN(C3CCOC3)C1)CC2 (mixture of isomers) [Example 57]

>  <pIC50>
7.24

$$$$
>  <compound>
Cc1cc(C(F)(F)F)cc(O)c1-c1cc2c(nn1)N([C@@H]1CCCN(CC(C)(C)O)C1)CC2 [Example 58]

>  <pIC50>
7.25

$$$$
>  <compound>
COc1cn([C@H]2C[C@@](C)(O)C2)c2nnc(-c3c(C)cc(OC(F)F)cc3O)cc12 [Example 72]

>  <pIC50>
7.27

$$$$

a. Cc1cc(C(F)(F)F)cc(O)c1-c1cc2ccn([C@H]3C[C@@](C)(CO)C3)c2nn1 [Example 7]
b. CCN1CCC[C@@H](n2cc(C)c3cc(-c4c(C)cc(C(F)(F)F)cc4O)nnc32)C1 [Example 20]
c. Cc1cc(C(F)(F)F)cc(O)c1-c1cc2ccn(C34CCCC(O)(C3)C4)c2nn1 [Example 88]
// smallest pIC50 at index 0, largest at the end As an answer, provide the labels arranged in the order called for.
a, c, b
(a: 7.17, c: 7.37, b: 8.09)

1. Cc1cc(Cl)cc(O)c1-c1cc2c(OC(F)F)cn([C@H]3C[C@@](C)(O)C3)c2nn1 [Example 29]
2. Cc1cc(Cl)cc(O)c1-c1cc2c(F)cn([C@H]3C[C@@](C)(O)C3)c2nn1 [Example 27]
Look at 1 and 2 . Which one has the lower recorded pIC50 number? // caller expects the label of the chosen entry
2

P. Cc1cc(C(F)(F)F)cc(O)c1-c1cc2scc(C3CCCN(C)C3)c2nn1 (racemic) [Example 95]
Q. Cc1cc(C(F)(F)F)cc(O)c1-c1cc2c(C(F)(F)F)cn([C@H]3C[C@@](C)(O)C3)c2nn1 [Example 59]
// compare measured pIC50, left P , right Q , return larger // caller expects the label of the chosen entry
P

----------
- measurement_target: NLRP3 inflammasome (Homo sapiens, UniProt Q96P20)
- Construct: endogenous in cells
- test: In vitro IL-1β production test (PMA-differentiated THP-1 cells, Nigericin stimulation, AlphaLISA)
- conditions_used: inhibition of IL-1β production; THP-1 cells differentiated with 200 nM PMA; 0.015 mM Nigericin; 2 hours
pIC50: −log10 of the molar value.
readout_kind: pIC50

>  <molecule>
CCCN1CCC[C@@H](N2CCc3cc(-c4c(C)cc(C(F)(F)F)cc4O)nnc32)C1

>  <pIC50>
8.10

$$$$
>  <molecule>
CCN1[C@H]2CC[C@@H]1[C@H](n1cc(C)c3cc(-c4c(C)cc(C(F)(F)F)cc4O)nnc31)CC2 (single isomer, unassigned)

>  <pIC50>
8.00

$$$$
>  <molecule>
Cc1cc(C(F)(F)F)cc(O)c1-c1cc2c(C)cn(C34CCCC(O)(C3)C4)c2nn1

>  <pIC50>
7.81

$$$$
>  <molecule>
CCN1CCC[C@@H](N2CCc3cc(-c4c(C)cc(OC(F)F)cc4O)nnc32)C1

>  <pIC50>
7.98

$$$$
>  <molecule>
Cc1cc(C(F)(F)F)cc(O)c1-c1cc2c(nn1)N([C@@H]1CC[C@@H]3CC[C@H]1N3C)CC2 (single isomer, unassigned)

>  <pIC50>
8.00

$$$$

P. CCN1C[C@H](F)C[C@@H](N2CCc3cc(-c4c(C)cc(C(F)(F)F)cc4O)nnc32)C1
Q. Cc1cc(C(F)(F)F)cc(O)c1-c1cc2c3c(n([C@H]4C[C@@](C)(O)C4)c2nn1)CCC3
// compare measured pIC50, left P , right Q , return larger // caller expects the label of the chosen entry
P
(P: 7.79, Q: 7.59)
